Reported log10 of Ki values, Cannabinoid receptor 1 (Rattus norvegicus).
RECORDED ENDPOINT: log10 of Ki (log10 of the value in nM)

>  <MOLECULE>
COc1ccc(C(=O)c2cn(CC3CCCCN3C)c3ccccc23)c2ccccc12 (stereo not given)

>  <RECORDED RESULT>
0.36

$$$$
>  <MOLECULE>
CN1CCCCC1Cn1nc(C(=O)c2cccc3ccccc23)c2ccccc21 (stereo not given)

>  <RECORDED RESULT>
0.15

$$$$
>  <MOLECULE>
CN1CCCCC1Cn1cc(C(=O)c2ccc(F)c3ccccc23)c2ccccc21 (stereo not given)

>  <RECORDED RESULT>
-0.15

$$$$
>  <MOLECULE>
CN1CCCCC1Cn1cc(C(=O)N2CCCC3CCCCC32)c2ccccc21 (stereo not given)

>  <RECORDED RESULT>
1.08

$$$$
>  <MOLECULE>
Cc1ccc(C(=O)c2cn(CC3CCCCN3C)c3ccccc23)c2ccccc12 (stereo not given)

>  <RECORDED RESULT>
0.04

$$$$
>  <MOLECULE>
CN1CCCCC1Cn1cc(C(=O)Nc2cccc3ccccc23)c2ccccc21 (stereo not given)

>  <RECORDED RESULT>
2.00

$$$$
>  <MOLECULE>
CN1CCCCC1Cn1cc(C(=O)c2ccc(C#N)c3ccccc23)c2ccccc21 (stereo not given)

>  <RECORDED RESULT>
0.04

$$$$
>  <MOLECULE>
CN1CCCCC1Cn1cc(C(=O)c2cccc3cc(O)ccc23)c2ccccc21 (stereo not given)

>  <RECORDED RESULT>
0.60

$$$$
>  <MOLECULE>
CN1CCCCC1Cn1cc(C(=O)c2cccc3ccccc23)c2ccccc21 (stereo not given)

>  <RECORDED RESULT>
-0.05

$$$$
>  <MOLECULE>
CN1CCCCC1Cn1cc(C(=O)c2ccc(Br)c3ccccc23)c2ccccc21 (stereo not given)

>  <RECORDED RESULT>
0.23

$$$$
